Experiment: AP1 Signaling Pathway (AID 357);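 note: ME-180 reporter cells stimulated with EGF at its EC50 level; % is set by controls: 0 for no effect and ±100 for the full control effect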
Conditions: ME-180 (cervical carcinoma) AP-1-bla reporter, EGF-induced, beta-lactamase ratio, 5 h; at 17.2 µM (top of the series) unless noted
Results filed as inconclusive are left out. The source made the active and inactive calls. Calls come from the whole dose curve; as a rule, active = well fitted curve in either direction with a large enough effect (not every such curve was filed as active); inconclusive = small, poorly fitted or top-dose-only effect, or another doubt; inactive = flat fitted curve, though single readings scatter.
Catalogue of activity change, negative = inhibition values

Known activity change, negative = inhibition results, listed for orientation:
N#CC(C#N)C(c1ccsc1)c1c(-c2ccccc2)[nH][nH]c1=O (stereo unspecified)	-20.2% (inactive)
CCSc1nnc(NC(=O)NC(CC)(C(F)(F)F)C(F)(F)F)s1	-15.5% (inactive)
Cc1cccc(OCC(=O)N2CCC(N3CCCCCC3)CC2)c1	4.73% (inactive)

Given the compound `Cc1cc2nncn2c(Cc2ccccc2)n1` , what is its reported activity change, negative = inhibition?
-3.42% (inactive)
